cAMP EC50 (assay 1) reference
Biological target: human GLP-1 receptor (human, UniProt P43220 24-463)
Experiment: cell-based or functional assay

{"columns": ["binder", "cAMP EC50 (assay 1)"],
 "data": [
  ["HSQGTFTSDKSKYLEGQAAKEFIAWLEKGR (X10 = K(gE-palm); C-terminal amide) [G812]", "0.011 nM"],
  ["HSQGTFTSDKSRYLDSRSARDFVAWLEAGG (X10 = K(gE-palm); C-terminal amide) [G849]", "0.009 nM"],
  ["HSQGTFTSDKSSYLDSRRARDFVAWLEAGG (X10 = K(gE-palm); C-terminal amide) [G796]", "0.013 nM"],
  ["HSQGTFTSDKSSYLDSRSARDFVAWLEAGG (X10 = K(gE-palm); C-terminal amide) [G865]", "0.0083 nM"]
]}
